# System: Dd2
# Assay Overview: qHTS profiling for inhibitors of Plasmodium falciparum proliferation (AID 504749); also: nearly all actives have a fitted effect of over 60% in size
# Settings: P. falciparum in erythrocytes, SYBR Green DNA, 72 h; series mostly up to 28.7 µM
# Protocol: NIH National Institute of Allergy and Infectious Diseases [NIAID] NIH Chemical Genomics Center [NCGC] […] Because mature erythrocytes lack DNA, only Plasmodium-derived DNA is detected. NCGC Assay Protocol Summary: The SYBR Green viability assay was adapted from a method described previously (Plouffe et al., 2008). […] The following morning, fluorescence intensity at 485(14) nm excitation and 535(25) nm emission wavelengths was measured on an EnVision (Perkin Elmer) plate reader. […]
Results filed as inconclusive are left out. The source made the active and inactive calls. Calls follow the shape of the dose curve; as a rule, active = well fitted inhibition curve with a large enough effect; inconclusive = small, poorly fitted or top-dose-only effect; inactive = flat fitted curve, though single readings scatter.
Outcome codes: true (active), false (inactive)

                                   compound  class
0                  C[S+](C)CC[C@H](N)C(=O)O  false
1  CC(C)CCCC(C)C1CC(=O)C2=C3CCC4CC(O)CCC4(C)C3CCC21C (configuration not stated)   true
2  COc1cc(/C=C2\CCC/C(=C\c3ccc(O)c(OC)c3)C2=O)ccc1O   true
3  O=C1C(I)=CC(=C(c2cc(I)c(O)c(I)c2)c2ccccc2C(=O)O)C=C1I  false
4  CO/N=C(/C(=O)N[C@@H]1C(=O)N2C(C(=O)O)=C(CSc3nnnn3C)CS[C@H]12)c1csc(N)n1  false
5  OCC1O[C@H](Oc2ccc(O)cc2)C(O)C(O)C1O (some centres not stated)  false
6  CC(=O)OCC(=O)[C@@]1(O)CCC2C3CCC4=CC(=O)C=CC4(C)C3C(O)C[C@]21C (some centres not stated)  false

* * *

# Assay Overview: NFAT Signaling Pathway (AID 444);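 also: carbachol stimulus at about its EC50 of 1 µM final; % is scaled to controls: 0 for no effect and ±100 for the full control effect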
# Settings: Jurkat NFAT-bla M1, carbachol, beta-lactamase ratio, 5 h; at 17.2 µM (top of the series) unless noted
Results filed as inconclusive are left out.
Overview of reported activity change, negative = inhibition across a group of molecules:
Test Readout: activity change, negative = inhibition (%)

In [3]: df
Out[3]:
                                    molecule                            test_readout  value_reported
 0  CCCCCC1CC(CC#CCN2CCOCC2)C(=O)O1 (stereo unspecified)  activity change, negative = inhibition           -1.87
 1  O=C1CC(NCc2ccc3c(c2)OCO3)C(=O)N1Cc1ccc2c(c1)OCO2 (stereo unspecified)  activity change, negative = inhibition            15.6
 2                      CCNC(=O)Nn1c(C)nnc1C  activity change, negative = inhibition           -5.86
 3         COC(=O)c1sc(NC(C)=O)c(C(=O)OC)c1C  activity change, negative = inhibition            2.63
 4  CN1C(=O)NC(c2ccccc2)C2=C1CN(Cc1ccccc1)C2=O (stereo unspecified)  activity change, negative = inhibition            1.92
 5  CC1(C)Cc2c(c(N3CCOCC3)nc3sc4c(=O)[nH]cnc4c23)CS1  activity change, negative = inhibition            5.56
 6  CC(=O)[C@@]1(O)CC[C@H]2[C@@H]3CCC4=CC(=O)CC[C@]4(C)[C@H]3[C@@H](O)C[C@@]21C  activity change, negative = inhibition           -20.8
 7    Clc1ccc2[nH]c3c(NCCCN4CCOCC4)ncnc3c2c1  activity change, negative = inhibition           -2.05
 8           CCOC(=O)CNC(=O)Nc1ccccc1C(=O)OC  activity change, negative = inhibition            12.3
 9  COc1ccccc1C1CC(c2ccc(Cl)cc2)Nc2nc(N)nn21 (stereo unspecified)  activity change, negative = inhibition            22.1
10  CC1(C)Cc2c(sc3nc(SCC(=O)NCc4ccco4)n(-c4ccccc4)c(=O)c23)CS1  activity change, negative = inhibition           -13.9
